Cited source: ChEMBL document CHEMBL4376886

Assay: in vivo
Settings: Sprague-Dawley, rat, ip, 5 mg/kg
Description: Tmax in Sprague-Dawley rat at 5 mg/kg, ip administered as single dose measured upto 24 hrs by LC-MS/MS analysis
measurement kind: Tmax at 24 h (min)
The reply should contain only the number, in min.

Qu. What measured Tmax at 24 h goes with CCO/N=C/c1ccc(OCCC(C)CCN2CCN(c3ccnc(N)c3)C2=O)cc1 (stereo unspecified) ?
Ans. 30

----------
I'd be grateful if you could share measured mortality at 48 h, 50 µM for these entries.
Experiment: Acute toxicity in juvenile zebrafish assessed as fatality rate at 50 uM after 48 hrs
Details: in vivo
The reply should contain only the number, in %.

Qu. What measured mortality at 48 h, 50 µM goes with CC(CCOc1ccc(-c2noc(C(F)(F)F)n2)cc1)CCN1CCN(c2ccnc(N)c2)C1=O (centres undefined) ?
Ans. 50

Qu. What measured mortality at 48 h, 50 µM goes with CCO/N=C/c1ccc(OCCCCCN2CCN(c3ccnc(N)c3)C2=O)cc1 ?
Ans. 100

Qu. What measured mortality at 48 h, 50 µM goes with CCO/N=C/c1ccc(OCCC(C)CCN2CCN(c3ccnc(N)c3)C2=O)cc1 (centres undefined) ?
Ans. 100

Qu. What measured mortality at 48 h, 50 µM goes with CCCc1nc(-c2ccc(OCCC(C)CCN3CCN(c4ccnc(N)c4)C3=O)cc2)no1 (centres undefined) ?
Ans. 100

----------
Assay: in vivo
Settings: Sprague-Dawley, rat, ip, 5 mg/kg
Description: Apparent clearance during terminal phase in Sprague-Dawley rat at 5 mg/kg, ip administered as single dose measured upto 24 hrs by LC-MS/MS analysis
measurement kind: CL/F at 24 h (L/h/kg)
The reply should contain only the number, in L/h/kg.

Qu. What measured CL/F at 24 h goes with CCO/N=C/c1ccc(OCCC(C)CCN2CCN(c3ccnc(N)c3)C2=O)cc1 (stereo unspecified) ?
Ans. 22.9

----------
Assay: Apparent clearance during terminal phase in Sprague-Dawley rat at 5 mg/kg, po administered as single dose measured upto 24 hrs by LC-MS/MS analysis
Format: ADME, organism-based
Conditions: in vivo, read-out: CLz/F (converted)
measurement kind: CL/F (mL/min/kg)
The reply should contain only the number, in mL/min/kg.

Qu. What measured CL/F goes with CCO/N=C/c1ccc(OCCC(C)CCN2CCN(c3ccnc(N)c3)C2=O)cc1 (stereo unspecified) ?
Ans. 1600

----------
Assay: Acute toxicity in juvenile zebrafish assessed as fatality rate at 50 uM after 24 hrs
Details: in vivo
measurement kind: mortality at 24 h, 50 µM (%)
The reply should contain only the number, in %.

Qu. What measured mortality at 24 h, 50 µM goes with CCc1nc(-c2ccc(OCCC(C)CCN3CCN(c4ccnc(N)c4)C3=O)cc2)no1 (centres undefined) ?
Ans. 10

Qu. What measured mortality at 24 h, 50 µM goes with CCO/N=C/c1ccc(OCCC(C)CCN2CCN(c3ccnc(N)c3)C2=O)cc1 (centres undefined) ?
Ans. 100

Qu. What measured mortality at 24 h, 50 µM goes with CC(CCOc1ccc(-c2noc(C(C)(C)C)n2)cc1)CCN1CCN(c2ccnc(N)c2)C1=O (centres undefined) ?
Ans. 0

Qu. What measured mortality at 24 h, 50 µM goes with CCO/N=C/c1ccc(OCCC(C)CCN2CCN(c3ccnc(OC)c3)C2=O)cc1 (centres undefined) ?
Ans. 100

Qu. What measured mortality at 24 h, 50 µM goes with CCCc1nc(-c2ccc(OCCC(C)CCN3CCN(c4ccnc(N)c4)C3=O)cc2)no1 (centres undefined) ?
Ans. 100

Qu. What measured mortality at 24 h, 50 µM goes with Cc1nc(-c2ccc(OCCC(C)CCN3CCN(c4ccnc(N)c4)C3=O)cc2)no1 (centres undefined) ?
Ans. 0

Qu. What measured mortality at 24 h, 50 µM goes with CCO/N=C/c1ccc(OCCC(C)CCN2CCN(c3ccccc3)C2=O)cc1 (centres undefined) ?
Ans. 100

Qu. What measured mortality at 24 h, 50 µM goes with CC(CCOc1ccc(-c2noc(C(F)(F)F)n2)cc1)CCN1CCN(c2ccnc(N)c2)C1=O (centres undefined) ?
Ans. 30

Qu. What measured mortality at 24 h, 50 µM goes with CCO/N=C/c1ccc(OCCCCCN2CCN(c3ccnc(N)c3)C2=O)cc1 ?
Ans. 0

----------
Experiment: Bioavailability in Sprague-Dawley rat at 5 mg/kg, ip administered as single dose measured upto 24 hrs by LC-MS/MS analysis
Settings: in vivo
measurement kind: bioavailability at 24 h
Please make sure the unit comes right after the number.

Qu. What measured bioavailability at 24 h goes with CCO/N=C/c1ccc(OCCC(C)CCN2CCN(c3ccnc(N)c3)C2=O)cc1 (stereo unspecified) ?
Ans. 85%

----------
Test: Subacute toxicity in PND4 Sprague-Dawley rat assessed as animal survival at 30 to 50 mg/kg/day, po administered via gavage for 14 days and measured for 28 days
Assay type: organism-based
Conditions: in vivo
measurement kind: survival at 672 h (%)
The reply should contain only the number, in %.

Qu. What measured survival at 672 h goes with CCO/N=C/c1ccc(OCCC(C)CCN2CCN(c3ccnc(N)c3)C2=O)cc1 (stereo unspecified) ?
Ans. 100

----------
Assay: Apparent half-life of the terminal disposition phase in Sprague-Dawley rat at 1 mg/kg, iv administered as single dose measured upto 24 hrs by LC-MS/MS analysis
Type: ADME, organism-based
Conditions: in vivo, read-out: t1/2 lambda z (converted)
measurement kind: half-life
Please make sure the unit comes right after the number.

Qu. What measured half-life goes with CCO/N=C/c1ccc(OCCC(C)CCN2CCN(c3ccnc(N)c3)C2=O)cc1 (stereo unspecified) ?
Ans. 30 min

----------
Experiment: Cytotoxicity against human RD cells assessed as reduction in cell viability incubated for 24 hrs by MTT assay
Settings: RD cells
measurement kind: CC50 at 24 h (µM)
The reply should contain only the number, in µM.

Qu. What measured CC50 at 24 h goes with CC(CCOc1ccc(-c2noc(C(F)(F)F)n2)cc1)CCN1CCN(c2ccnc(N)c2)C1=O (configuration not stated) ?
Ans. 48.1

Qu. What measured CC50 at 24 h goes with CC(CCOc1ccc(-c2noc(C(C)(C)C)n2)cc1)CCN1CCN(c2ccnc(N)c2)C1=O (configuration not stated) ?
Ans. 55

Qu. What measured CC50 at 24 h goes with Cc1nc(-c2ccc(OCCC(C)CCN3CCN(c4ccnc(N)c4)C3=O)cc2)no1 (configuration not stated) ?
Ans. 66.1

Qu. What measured CC50 at 24 h goes with CCONCc1ccc(OCCC(C)CCN2CCN(c3ccnc(N)c3)C2=O)cc1 (configuration not stated) ?
Ans. 7.37

Qu. What measured CC50 at 24 h goes with Cc1nc(-c2cc(C)c(OCCC(C)CCN3CCN(c4ccnc(N)c4)C3=O)c(C)c2)no1 (configuration not stated) ?
Ans. 28.8

Qu. What measured CC50 at 24 h goes with CCCc1nc(-c2cc(C)c(OCCC(C)CCN3CCN(c4ccnc(N)c4)C3=O)c(C)c2)no1 (configuration not stated) ?
Ans. 14.1

Qu. What measured CC50 at 24 h goes with CCc1nc(-c2cc(C)c(OCCC(C)CCN3CCN(c4ccnc(N)c4)C3=O)c(C)c2)no1 (configuration not stated) ?
Ans. 15.7

Qu. What measured CC50 at 24 h goes with CCO/N=C/c1ccc(OCCCCCN2CCN(c3ccnc(N)c3)C2=O)cc1 ?
Ans. 59

Qu. What measured CC50 at 24 h goes with CCO/N=C/c1cc(C)c(OCCC(C)CCN2CCN(c3ccnc(N)c3)C2=O)c(C)c1 (configuration not stated) ?
Ans. 12.8

----------
Assay: Acute toxicity in juvenile zebrafish assessed as fatality rate at 100 uM after 24 hrs
Settings: in vivo
I'd be grateful if you could share measured mortality at 24 h, 100 µM for these entries.
The reply should contain only the number, in %.

Qu. What measured mortality at 24 h, 100 µM goes with CC(CCOc1ccc(-c2noc(C(F)(F)F)n2)cc1)CCN1CCN(c2ccnc(N)c2)C1=O (centres undefined) ?
Ans. 70

Qu. What measured mortality at 24 h, 100 µM goes with CCO/N=C/c1ccc(OCCC(C)CCN2CCN(c3ccnc(N)c3)C2=O)cc1 (centres undefined) ?
Ans. 100

Qu. What measured mortality at 24 h, 100 µM goes with CCO/N=C/c1ccc(OCCC(C)CCN2CCN(c3ccccc3)C2=O)cc1 (centres undefined) ?
Ans. 100

Qu. What measured mortality at 24 h, 100 µM goes with CC(CCOc1ccc(-c2noc(C(C)(C)C)n2)cc1)CCN1CCN(c2ccnc(N)c2)C1=O (centres undefined) ?
Ans. 80

Qu. What measured mortality at 24 h, 100 µM goes with Cc1nc(-c2ccc(OCCC(C)CCN3CCN(c4ccnc(N)c4)C3=O)cc2)no1 (centres undefined) ?
Ans. 0

Qu. What measured mortality at 24 h, 100 µM goes with CCO/N=C/c1ccc(OCCC(C)CCN2CCN(c3ccnc(OC)c3)C2=O)cc1 (centres undefined) ?
Ans. 100

Qu. What measured mortality at 24 h, 100 µM goes with CCc1nc(-c2ccc(OCCC(C)CCN3CCN(c4ccnc(N)c4)C3=O)cc2)no1 (centres undefined) ?
Ans. 30

Qu. What measured mortality at 24 h, 100 µM goes with CCCc1nc(-c2ccc(OCCC(C)CCN3CCN(c4ccnc(N)c4)C3=O)cc2)no1 (centres undefined) ?
Ans. 100

Qu. What measured mortality at 24 h, 100 µM goes with CCO/N=C/c1ccc(OCCCCCN2CCN(c3ccnc(N)c3)C2=O)cc1 ?
Ans. 100
